Target: MCL-1 (Homo sapiens)
Sequence (Q07820 whole entry): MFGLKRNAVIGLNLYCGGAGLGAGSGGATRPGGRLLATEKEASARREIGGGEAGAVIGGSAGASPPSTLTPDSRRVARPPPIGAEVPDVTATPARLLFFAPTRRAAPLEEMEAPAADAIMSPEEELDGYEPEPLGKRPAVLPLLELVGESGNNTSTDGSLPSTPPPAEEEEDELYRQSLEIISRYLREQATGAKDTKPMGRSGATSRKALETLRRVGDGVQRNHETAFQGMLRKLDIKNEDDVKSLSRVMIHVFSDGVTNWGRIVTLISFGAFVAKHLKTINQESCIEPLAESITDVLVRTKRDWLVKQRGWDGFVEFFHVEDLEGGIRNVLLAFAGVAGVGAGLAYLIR
Assay: Protein-protein interaction assay MCL-1/Noxa BH3 peptide (MCL-1 assay), TR-FRET
Assay type: binding
Details: MBP-MCL-1 / Noxa BH3-derived peptide, median
Assay metric: IC50 (nM)
Report only the number, with the unit nM understood.

Exercise: // fetch MCL-1 (Homo sapiens) IC50 for Cc1cc2c(OCCCc3c(C(=O)O)n4c5c(cccc35)-c3c(C)nn(C)c3COCCCC4)cccc2cc1F (single isomer, unassigned; enantiomer 2) [Example 051]
Solution: 73.7

Exercise: // fetch MCL-1 (Homo sapiens) IC50 for Cc1c2c(nn1C)CN(C)CCCn1c(C(=O)O)c(CCCOc3cccc4ccccc34)c3cccc-2c31 (single isomer, unassigned; enantiomer 1) [Example 1-34]
Solution: 6.71

Exercise: // fetch MCL-1 (Homo sapiens) IC50 for Cn1nc(COc2ccc(S(C)(=O)=O)cc2)c2c1COCC=CCn1c(C(=O)O)c(CCCOc3cccc4ccccc34)c3cccc-2c31 (single isomer, unassigned) [Example 1-53]
Solution: 16.2

Cited source: patent US10981932B2
